Test system: fluoroquinolone resistant strain FQ-R1
Assay: microbe, parasite or virus in culture
Assay type: cell-based, Mycobacterium tuberculosis
Settings: Mycobacterium tuberculosis, FQR1; read-out: IC50
ENDPOINT NAME: pIC50
In textbook form, pIC50 equals minus log to base ten of the concentration in mol/L.

Enquiry: What value of pIC50 has been recorded for this entry: C[C@H]1COc2c(N3CCN(C)CC3)c(F)cc3c(=O)c(C(=O)O)cn1c23 [Levofloxacin, levofloxacin, reference compound]
Return: 4.31

Enquiry: Query: pIC50; subject: CCOC(=O)c1cc(C(=O)c2ccc(Cl)cc2)n2ccc(-c3cc[n+](CC(=O)c4ccc(C)cc4)cc3)cc12 [Compound 6i]
Return: 4.96

Enquiry: For CCOC(=O)c1cc(C(=O)c2ccccc2)n2ccc(-c3cc[n+](CC(=O)c4ccc(C)cc4)cc3)cc12.[Br-] [Compound 6a] , what is its reported pIC50?
Return: 4.82

Enquiry: Please give the measured pIC50 for this compound: CCOC(=O)c1cc(C(=O)c2ccc(Br)cc2)n2ccc(-c3cc[n+](CC(=O)c4cccc(OC)c4)cc3)cc12 [Compound 6h]
Return: 4.59

Enquiry: For the compound shown here, NNC(=O)c1ccncc1 [Isoniazid, reference compound] , give the reported pIC50.
Return: 6.89

# context switch: different compound, same pIC50
Enquiry: Query: pIC50; subject: CCOC(=O)c1cc(C(=O)c2ccc(Cl)cc2)n2ccc(-c3cc[n+](CC(=O)c4cccc(OC)c4)cc3)cc12 [Compound 6d]
Return: 4.68

====

Catalogue of molecules with associated MIC
Tested on: fluoroquinolone resistant strain FQ-R1
Assay: microbe, parasite or virus in culture
Format: cell-based, Mycobacterium tuberculosis
Conditions: Mycobacterium tuberculosis, FQR1; read-out: MIC
The figure you give is taken to be in µM; do not add the unit.

Enquiry: What value of MIC has been recorded for this entry: C[C@H]1COc2c(N3CCN(C)CC3)c(F)cc3c(=O)c(C(=O)O)cn1c23 [Levofloxacin, levofloxacin, reference compound]
Return: 110

***
Enquiry: I would be grateful if you could share the reported MIC for `CCOC(=O)c1cc(C(=O)c2ccc(Cl)cc2)n2ccc(-c3cc[n+](CC(=O)c4cccc(OC)c4)cc3)cc12` .
Return: 32

Enquiry: Recorded MIC for `CCOC(=O)c1cc(C(=O)c2ccccc2)n2ccc(-c3cc[n+](CC(=O)c4ccc(C)cc4)cc3)cc12.[Br-]` , please?
Return: 31

Enquiry: GET /values?readout=MIC&item= `CCOC(=O)c1cc(C(=O)c2ccc(Cl)cc2)n2ccc(-c3cc[n+](CC(=O)c4ccc(C)cc4)cc3)cc12`
Return: 27

Enquiry: Need MIC of NNC(=O)c1ccncc1 [Isoniazid, reference compound] , thanks.
Return: 0.16

====

Entries and their measured MIC follow.
Test system: rifampicin resistant strain RIF-R1
Experiment: microbe, parasite or virus in culture
Format: cell-based, Mycobacterium tuberculosis
Conditions: Mycobacterium tuberculosis, RIFR1; read-out: MIC
Value expressed in µM; do not type the unit.

Enquiry: Returns the measured MIC for the input compound. Input: CCOC(=O)c1cc(C(=O)c2ccc(Cl)cc2)n2ccc(-c3cc[n+](CC(=O)c4ccc(C)cc4)cc3)cc12 [Compound 6i]
Return: 15

Others:
Enquiry: Need MIC of NNC(=O)c1ccncc1 [Isoniazid, reference compound] , thanks.
Return: 0.092

Enquiry: Find the recorded MIC belonging to CCOC(=O)c1cc(C(=O)c2ccc(Cl)cc2)n2ccc(-c3cc[n+](CC(=O)c4cccc(OC)c4)cc3)cc12 [Compound 6d] and report it.
Return: 22

Enquiry: Name the recorded MIC for C[C@H]1COc2c(N3CCN(C)CC3)c(F)cc3c(=O)c(C(=O)O)cn1c23 [Levofloxacin, levofloxacin, reference compound] .
Return: 2.7

Enquiry: Looking for the measured MIC of CCOC(=O)c1cc(C(=O)c2ccccc2)n2ccc(-c3cc[n+](CC(=O)c4ccc(C)cc4)cc3)cc12.[Br-] [Compound 6a] , can you help?
Return: 14

Enquiry: What MIC value was documented for this compound, CCOC(=O)c1cc(C(=O)c2ccc(Br)cc2)n2ccc(-c3cc[n+](CC(=O)c4cccc(OC)c4)cc3)cc12 [Compound 6h] ?
Return: 24

====

Let's look at some molecules and their measured IC90.
System: fluoroquinolone resistant strain FQ-R1
Assay: microbe, parasite or virus in culture
Assay type: cell-based, Mycobacterium tuberculosis
Conditions: Mycobacterium tuberculosis, FQR1; read-out: IC90
Reply with just the number (in µM).

Solved entries:
Enquiry: Reported IC90 for CCOC(=O)c1cc(C(=O)c2ccccc2)n2ccc(-c3cc[n+](CC(=O)c4ccc(C)cc4)cc3)cc12.[Br-] [Compound 6a] : what is it?
Return: 32

Enquiry: Need IC90 of CCOC(=O)c1cc(C(=O)c2ccc(Cl)cc2)n2ccc(-c3cc[n+](CC(=O)c4cccc(OC)c4)cc3)cc12 [Compound 6d] , thanks.
Return: 32

Enquiry: // IC90 lookup, key: CCOC(=O)c1cc(C(=O)c2ccc(Cl)cc2)n2ccc(-c3cc[n+](CC(=O)c4ccc(C)cc4)cc3)cc12 [Compound 6i]
Return: 28

Enquiry: Which IC90 is reported for this molecule? NNC(=O)c1ccncc1 [Isoniazid, reference compound]
Return: 0.15

Consider the additional molecule presented here.
Enquiry: Which measured IC90 value corresponds to C[C@H]1COc2c(N3CCN(C)CC3)c(F)cc3c(=O)c(C(=O)O)cn1c23 [Levofloxacin, levofloxacin, reference compound] ?
Return: 110

====

Tested on: isoniazid resistant strain INH-R2
Test: microbe, parasite or virus in culture
Type: cell-based, Mycobacterium tuberculosis
Conditions: Mycobacterium tuberculosis, INHR2
Here the recorded pIC50 is given for each entry.
The quantity pIC50 is defined as the negative base-10 logarithm of the molar concentration.

Example molecules with recorded pIC50:
Enquiry: // lookup pIC50 for CCOC(=O)c1cc(C(=O)c2ccc(Cl)cc2)n2ccc(-c3cc[n+](CC(=O)c4cccc(OC)c4)cc3)cc12 [Compound 6d]
Return: 4.82

Enquiry: Given the entry CCOC(=O)c1cc(C(=O)c2ccccc2)n2ccc(-c3cc[n+](CC(=O)c4ccc(C)cc4)cc3)cc12.[Br-] [Compound 6a] , report its measured pIC50.
Return: 4.92

Enquiry: # pIC50 lookup, item C[C@H]1COc2c(N3CCN(C)CC3)c(F)cc3c(=O)c(C(=O)O)cn1c23 [Levofloxacin, levofloxacin, reference compound]
Return: 5.62

Enquiry: Give the measured pIC50 of CCOC(=O)c1cc(C(=O)c2ccc(Br)cc2)n2ccc(-c3cc[n+](CC(=O)c4cccc(OC)c4)cc3)cc12 [Compound 6h] .
Return: 4.80

Enquiry: Look at this molecule and give its reported pIC50. CO[C@H]1/C=C/O[C@@]2(C)Oc3c(C)c(O)c4c(O)c(c(/C=N/N5CCN(C)CC5)c(O)c4c3C2=O)NC(=O)/C(C)=C\C=C\[C@H](C)[C@H](O)[C@@H](C)[C@@H](O)[C@@H](C)[C@H](OC(C)=O)[C@@H]1C [Rifampicin, reference compound]
Return: 8.15

Could you now consider this next molecule?
Enquiry: Name the recorded pIC50 for CCOC(=O)c1cc(C(=O)c2ccc(Cl)cc2)n2ccc(-c3cc[n+](CC(=O)c4ccc(C)cc4)cc3)cc12 [Compound 6i] .
Return: 5.01

Source listed as paper PMC6021032.
